# ASSAY: UPLC in vitro release assay of small molecules from MDP hydrogels
# Type: physicochemical
# ASSAY CONTEXT: from SHA-K2 hydrogel, 24 h
ASSAY READOUT: drug released in vitro

The cases that follow already have their drug released in vitro on record.
>>> result("CC(C)C[C@H](NC(=O)CNC(=O)c1cc(Cl)ccc1Cl)B(O)O")
"50–70%"
>>> result("OB1OCc2cc(F)ccc21")
"49.1 ± 0.3%"
>>> result("NC[C@H]1OB(O)c2c(OCCO)ccc(Cl)c21")
"48.7 ± 2.5%"

Problem: Entry under review: CC(C)C[C@H](NC(=O)[C@H](Cc1ccccc1)NC(=O)c1cnccn1)B(O)O . Reported drug released in vitro?
Solution: 50–70%
